TARGET_OF_ASSAY: T1, FolK, purified protein (E. coli, UniProt P26281 1-159)
T1 construct: FolK of E. coli (encoded by the gene folK); Expression and purification are not described
T1 sequence: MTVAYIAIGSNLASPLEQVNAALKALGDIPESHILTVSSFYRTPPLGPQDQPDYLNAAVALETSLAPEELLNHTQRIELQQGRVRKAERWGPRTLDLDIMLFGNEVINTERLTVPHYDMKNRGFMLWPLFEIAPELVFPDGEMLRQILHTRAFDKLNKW
ASSAY_EXPLANATION: Raman spectroscopy; titration: DHFR 7.5-50 µM, FolK fixed at 15 µM; area of the interaction-specific peak at ~1663 cm^-1 against DHFR concentration, hyperbolic fit
CONDITION_NOTES: both partners purified
MEASUREMENT_KIND: pKd
Numbers only, as −log10 of the molar value.

Please state, for each entry, its recorded pKd.
1. D132H DHFR, purified protein (enzyme, E. coli, dihydrofolate reductase (DHFR) of E. coli with one substitution; as m28; Expression and purification are not described; also called D132H mutant of DHFR) MISLIAALAVDRVIGMENAMPWNLPADLAWFKRNTLNKPVIMGRHTWESIGRPLPGRKNIILSSQPGTDDRVTWVKSVDEAIAACGDVPEIMVIGGGRVYEQFLPKAQKLYLTHIDAEVEGDTHFPDYEPDHWESVFSEFHDADAQNSHSYCFEILERR
2. DHFR, wild type, purified protein (enzyme, E. coli, dihydrofolate reductase (DHFR, FolA) of E. coli; Expression and purification are not described; also called WT DHFR; WT-DHFR) MISLIAALAVDRVIGMENAMPWNLPADLAWFKRNTLNKPVIMGRHTWESIGRPLPGRKNIILSSQPGTDDRVTWVKSVDEAIAACGDVPEIMVIGGGRVYEQFLPKAQKLYLTHIDAEVEGDTHFPDYEPDDWESVFSEFHDADAQNSHSYCFEILERR
3. N23V DHFR, purified protein (enzyme, E. coli, dihydrofolate reductase (DHFR) of E. coli with one substitution; as m28; Expression and purification are not described; also called N23V mutant of DHFR) MISLIAALAVDRVIGMENAMPWVLPADLAWFKRNTLNKPVIMGRHTWESIGRPLPGRKNIILSSQPGTDDRVTWVKSVDEAIAACGDVPEIMVIGGGRVYEQFLPKAQKLYLTHIDAEVEGDTHFPDYEPDDWESVFSEFHDADAQNSHSYCFEILERR
4. D144N DHFR, purified protein (enzyme, E. coli, dihydrofolate reductase (DHFR) of E. coli with one substitution; as m28; Expression and purification are not described; also called D144N mutant of DHFR) MISLIAALAVDRVIGMENAMPWNLPADLAWFKRNTLNKPVIMGRHTWESIGRPLPGRKNIILSSQPGTDDRVTWVKSVDEAIAACGDVPEIMVIGGGRVYEQFLPKAQKLYLTHIDAEVEGDTHFPDYEPDDWESVFSEFHDANAQNSHSYCFEILERR

Result:
1: 5.09; 2: 4.66; 3: 5.29; 4: 5.00
